- TARGET OF ASSAY: high affinity agonist conformation of the muscarinic cholinergic receptor (rat brain cerebral cortex homogenate)
- METHOD: [3H]-Cis-methyldioxolane (3H-CD) binding assay (high affinity)
- MEASUREMENT SETUP: 1.0 nM 3H-CD, 25° C., 120 minutes
ATTRIBUTE MEASURED: pKi
# pKi = -log10(concentration in molar units)

Worked cases, pKi given:
>>> reported_value("CSC1CC(=O)N(CC#CCN2CCCC2)C1=O (stereo not shown)")
5.75
>>> reported_value("CN(C)CC#CCN1C(=O)C=CC1=O")
5.83
>>> reported_value("C[N+](C)(C)CC#CCN1C(=O)C=CC1=O")
6.54

Problem: Which pKi value is on record for CSC1CC(=O)N(CC#CCN(C)C)C1=O (stereo not shown) ?
Result: 5.80

Problem: Which pKi value is on record for "CC1=CC(=O)N(CC#CCN2CCCC2)C1=O" ?
Result: 6.28

Problem: Which pKi value is on record for "CC1=CC(=O)N(CC#CC[N+](C)(C)C)C1=O" ?
Result: 6.25

Problem: Which pKi value is on record for "CC1=CC(=O)N(CC#CCN(C)C)C1=O" ?
Result: 5.47

---

- TARGET OF ASSAY: muscarinic cholinergic receptor (rat brain cerebral cortex homogenate)
- MEASUREMENT SETUP: 0.25 nM 3H-QNB, 25° C., 120 minutes
ATTRIBUTE MEASURED: log10 Ki (log10 of the value in µM)
Use the decimal logarithm of Ki (µM).

Worked cases, log10 Ki given:
>>> reported_value("CC1=CC(=O)N(CC#CCN(C)C)C1=O")
0.15
>>> reported_value("CC1=CC(=O)N(CC#CC[N+](C)(C)C)C1=O")
0.36
>>> reported_value("CC1=CC(=O)N(CC#CCN2CCCC2)C1=O")
-0.70
>>> reported_value("CN(C)CC#CCN1C(=O)C=CC1=O")
0.24
>>> reported_value("CSC1CC(=O)N(CC#CCN2CCCC2)C1=O (stereo not shown)")
0.34

Kindly consider the entry below.
Problem: Recall the recorded log10 Ki for "C[N+](C)(C)CC#CCN1C(=O)C=CC1=O" with muscarinic cholinergic receptor (rat brain cerebral cortex homogenate) and state it.
Result: 1.04
